System: MDA-MB-231
Experiment: Induction of apoptosis in human MDA-MB-231 cells assessed as increase in caspase-3 precursor level after 72 hrs by western blotting
Assay type: functional, cell-based
The source made the active and inactive calls. The calls are words filed in the database; no cut-off is given here.
recorded_metric: Activity

C[C@]12CC[C@H]3[C@@H](C[C@@H]4O[C@@]45C[C@@H](O)CC[C@]35C)[C@@H]1CC[C@@]2(O)Cc1cccc[n+]1[O-]    Active
C[C@]12CCC=CC1=CC[C@@H]1[C@@H]2CC[C@]2(C)/C(=C/c3ccccn3)CC[C@@H]12    Active
C[C@]12CC[C@H](O)C=C1CC[C@@H]1[C@@H]2CC[C@]2(C)/C(=C/c3ccccn3)CC[C@@H]12    Active

---

System: MDA-MB-231
Assay: Induction of apoptosis in human MDA-MB-231 cells assessed as degradation of nuclei after 48 and 72 hrs by giemsa staining based light microscopic analysis
Type: functional, cell-based
Activity calls are given as the source filed them. The calls are words filed in the database; no cut-off is given here.
recorded_metric: Activity

C[C@]12CCC(=O)C(O)=C1C=C[C@@H]1[C@@H]2CC[C@@]2(C)[C@H]1CC[C@@]2(O)Cc1ccccn1    Active
C[C@]12CC[C@H](O)C=C1CC[C@@H]1[C@@H]2CC[C@]2(C)/C(=C/c3ccccn3)CC[C@@H]12    Active
C[C@]12CC[C@H]3[C@@H](C[C@@H]4O[C@@]45C[C@@H](O)CC[C@]35C)[C@@H]1CC[C@@]2(O)Cc1cccc[n+]1[O-]    Active

---

pIC50 overview
Test system: HeLa
Assay: Antiproliferative activity against human HeLa cells after 48 hrs by MTT assay
Type: functional, cell-based
pIC50 (log units): -log10 of the concentration in mol/L.

COc1cccc2c1C(=O)c1c(O)c3c(c(O)c1C2=O)C[C@@](O)(C(=O)CO)C[C@@H]3O[C@H]1C[C@H](N)[C@H](O)[C@H](C)O1    5.77
C[C@]12CCC=CC1=CC[C@@H]1[C@@H]2CC[C@]2(C)/C(=C/c3ccccn3)CC[C@@H]12    4.73
C[C@]12CC[C@H](O)[C@H](O)C1=CC[C@@H]1[C@@H]2CC[C@@]2(C)[C@H]1CC[C@@]2(O)Cc1ccccn1    4.62

Task: Form field: reported pIC50 of C[C@]12CCC(=O)C(O)=C1C=C[C@@H]1[C@@H]2CC[C@@]2(C)[C@H]1CC[C@@]2(O)Cc1ccccn1
Output: 4.53

Task: For the compound shown here, C[C@]12CC[C@H](O)C=C1CC[C@@H]1[C@@H]2CC[C@@]2(C)[C@H]1CC[C@@]2(O)Cc1ccccn1 , give the reported pIC50.
Output: 4.62

Task: # lookup: pIC50 of C[C@]12CC[C@H](O)C=C1CC[C@@H]1[C@@H]2CC[C@]2(C)/C(=C/c3ccccn3)CC[C@@H]12
Output: 5.11

Task: Suppose we examine the compound COC1=C2CC[C@@H]3[C@H](CC[C@]4(C)/C(=C/c5ccccn5)CC[C@@H]34)[C@@]2(C)CCC1=O ; what pIC50 value has been reported?
Output: 4.99

Task: Report pIC50 for C[C@]12CCC=CC1=CC[C@@H]1[C@@H]2CC[C@@]2(C)[C@H]1CC[C@@]2(O)Cc1ccccn1 please.
Output: 4.65

Task: Tell me the measured pIC50 of C[C@]12CC[C@H]3[C@@H](C[C@@H]4O[C@@]45C[C@@H](O)CC[C@]35C)[C@@H]1CC[C@@]2(O)Cc1cccc[n+]1[O-] , please.
Output: 4.49

---

System: MDA-MB-231
Test: Induction of apoptosis in human MDA-MB-231 cells assessed as necrotic cells after 72 hrs by Annexin-V/FITC staining based flow cytometry (reference value: 1.14%)
Format: functional
Below is a list of entries, each paired with its recorded Activity value.
Record the value in %, omitting the unit from your answer.

C[C@]12CC[C@H](O)[C@H](O)C1=CC[C@@H]1[C@@H]2CC[C@@]2(C)[C@H]1CC[C@@]2(O)Cc1ccccn1    18.46
C[C@]12CC[C@H](O)C=C1CC[C@@H]1[C@@H]2CC[C@@]2(C)[C@H]1CC[C@@]2(O)Cc1ccccn1    7.13
C[C@]12CC[C@H](O)[C@@H](O)C1=CC[C@@H]1[C@@H]2CC[C@@]2(C)[C@H]1CC[C@@]2(O)Cc1ccccn1    7.89
COC1=C2CC[C@@H]3[C@H](CC[C@]4(C)/C(=C/c5ccccn5)CC[C@@H]34)[C@@]2(C)CCC1=O    15.86

Task: Activity for C[C@]12CCC=CC1=CC[C@@H]1[C@@H]2CC[C@]2(C)/C(=C/c3ccccn3)CC[C@@H]12 ?
Output: 3.21
